Listed here: items and their measured IC50.
targetOrSystem: Renin (Homo sapiens, UniProt P00797)
Sequence (P00797 whole entry): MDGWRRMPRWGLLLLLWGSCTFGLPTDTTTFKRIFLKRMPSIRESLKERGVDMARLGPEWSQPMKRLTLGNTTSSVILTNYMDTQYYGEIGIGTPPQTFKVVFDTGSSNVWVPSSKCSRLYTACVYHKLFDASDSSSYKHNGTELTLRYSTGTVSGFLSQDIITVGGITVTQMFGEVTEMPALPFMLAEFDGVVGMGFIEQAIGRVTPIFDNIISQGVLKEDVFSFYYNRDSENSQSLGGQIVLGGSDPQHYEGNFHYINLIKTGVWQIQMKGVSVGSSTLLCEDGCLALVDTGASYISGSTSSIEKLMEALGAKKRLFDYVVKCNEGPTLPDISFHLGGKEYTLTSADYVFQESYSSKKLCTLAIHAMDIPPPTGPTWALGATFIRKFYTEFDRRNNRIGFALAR
protocolSummary: Inhibition against human plasma renin
Format: cell-free
resultType: IC50 (nM)

# compound, obsValue
records = [
    ("CCOC(=O)N[C@@H](Cc1ccccc1)C(=O)N[C@@H](Cc1cnc[nH]1)C(=O)N[C@@H](CC1CCCCC1)[C@@H](O)CCS(=O)(=O)C(C)C", 23),
    ("CCS(=O)(=O)CC[C@H](O)[C@H](CC1CCCCC1)NC(=O)[C@H](Cc1cnc[nH]1)NC(=O)[C@H](Cc1ccccc1)NC(=O)OC(C)(C)C", 28),
    ("CC[C@H](C)[C@H](NC(=O)[C@@H](NC(O)[C@H](CC(C)C)NC(=O)[C@H](Cc1c[nH]cn1)NC(=O)[C@H](Cc1ccccc1)NC(=O)[C@@H]1CCCN1C(=O)[C@H](Cc1c[nH]cn1)NC(=O)OC(C)(C)C)C(C)C)C(=O)N[C@@H](Cc1c[nH]cn1)C(=O)O (stereo partly drawn)", 0.7),
]

====

targetOrSystem: Renin (Rattus norvegicus) (UniProt P08424)
Sequence (P08424 whole entry): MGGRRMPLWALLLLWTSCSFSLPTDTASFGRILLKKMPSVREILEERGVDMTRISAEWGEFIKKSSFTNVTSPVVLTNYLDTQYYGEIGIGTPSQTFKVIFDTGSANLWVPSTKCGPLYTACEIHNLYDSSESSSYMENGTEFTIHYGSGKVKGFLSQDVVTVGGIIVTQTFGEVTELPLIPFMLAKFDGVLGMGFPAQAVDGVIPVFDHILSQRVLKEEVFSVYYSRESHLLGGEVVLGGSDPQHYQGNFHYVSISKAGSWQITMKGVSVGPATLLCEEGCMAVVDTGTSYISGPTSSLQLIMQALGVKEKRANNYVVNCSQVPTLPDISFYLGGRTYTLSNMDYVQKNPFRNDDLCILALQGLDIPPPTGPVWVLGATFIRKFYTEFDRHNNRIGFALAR
protocolSummary: Percentage inhibition against rat plasma renin at 1.0x10E-5M
Type: cell-free
resultType: inhibition (%)

# inputSmiles, targetOrSystem, unitString, obsValue
measured = [
    ("COc1ccc(C[C@H](NC(=O)OC(C)(C)C)C(=O)N[C@@H](Cc2c[nH]cn2)C(=O)N[C@@H](CC2CCCCC2)[C@@H](O)CCS(=O)(=O)C(C)C)cc1", "Renin (Rattus norvegicus) (UniProt P08424)", "%", 0),
    ("CCOC(=O)N[C@@H](Cc1ccccc1)C(=O)N[C@@H](Cc1c[nH]cn1)C(=O)N[C@@H](CC1CCCCC1)[C@@H](O)CCS(=O)(=O)C(C)C", "Renin (Rattus norvegicus) (UniProt P08424)", "%", 12),
    ("CC(C)S(=O)(=O)CC[C@H](O)[C@H](CC1CCCCC1)NC(=O)[C@H](Cc1ccccc1)NC(=O)[C@H](Cc1ccccc1)NC(=O)OC(C)(C)C", "Renin (Rattus norvegicus) (UniProt P08424)", "%", 26),
    ("CC(C)S(=O)(=O)CC[C@H](O)[C@H](CC1CCCCC1)NC(=O)[C@H](Cc1c[nH]cn1)NC(=O)[C@H](Cc1ccccc1)NC(=O)CC(C)(C)C", "Renin (Rattus norvegicus) (UniProt P08424)", "%", 30),
    ("CC(C)C[C@H](NC(=O)[C@H](Cc1ccccc1)NC(=O)OC(C)(C)C)C(=O)N[C@@H](CC1CCCCC1)[C@@H](O)CCS(=O)(=O)C(C)C", "Renin (Rattus norvegicus) (UniProt P08424)", "%", 18),
    ("CC(C)S(=O)(=O)CC[C@H](O)[C@H](CC1CCCCC1)NC(=O)[C@H](C)NC(=O)[C@H](Cc1ccccc1)NC(=O)OC(C)(C)C", "Renin (Rattus norvegicus) (UniProt P08424)", "%", 12),
    ("CCS(=O)(=O)CC[C@H](O)[C@H](CC1CCCCC1)NC(=O)[C@H](C)NC(=O)[C@H](Cc1ccccc1)NC(=O)OC(C)(C)C", "Renin (Rattus norvegicus) (UniProt P08424)", "%", 2),
]
